// reported normalised viability for each item listed
- Tested on: CAL-51
- Measurement Protocol: normalised viability (% of control), CellTiter-Blue; higher = more viable cells (about 100 = DMSO control)
- Reported Conditions: 3 nM; incubation time: 72 h
Write it as a number; the unit % goes unstated.

Some compounds with recorded normalised viability:
• COc1cc2c(cc1O)CC[C@@H]1[C@@H]2CC[C@]2(C)[C@@H](O)CC[C@@H]12 [2-methoxyestradiol] = 122
• Cn1cc(C2=Nc3cc(NC(=O)C(N)C4CCCCC4)cc4c3C2=CNNC4=O)cn1 (stereo not given) = 104
• O=NN(CCCl)C(=O)NCCCl [Carmustine] = 108
• O=P(O)(O)C(O)(Cn1ccnc1)P(=O)(O)O [Zoledronic acid] = 108

The observed normalised viability for CC1(C)CNc2cc(NC(=O)c3cccnc3NCc3ccncc3)ccc21 [Motesanib] when tested with CAL-51 stands at 109

====

- Test system: Hs578T
- Measurement Protocol: normalised viability (% of control), CellTiter-Blue; higher = more viable cells (about 100 = DMSO control)
- Reported Conditions: 100 nM; incubation time: 72 h
// reported normalised viability for each item listed
Write it as a number; the unit % goes unstated.

Some molecules with recorded normalised viability:
* CC1=C2C[C@H]3[C@@H](CC=C4C[C@@H](O)CC[C@@]43C)[C@@H]2CC[C@]12O[C@@H]1C[C@H](C)CN[C@H]1[C@H]2C [Cyclopamine] | 84.1
* CC(C)(C)c1cnc(CSc2cnc(NC(=O)C3CCNCC3)s2)o1 [SNS-032] | 52.8
* O=C1CN2Cc3c(ccc(Cl)c3Cl)N=C2N1 [Anagrelide] | 88
* COc1cc2c(cc1O)CC[C@@H]1[C@@H]2CC[C@]2(C)[C@@H](O)CC[C@@H]12 [2-methoxyestradiol] | 103
* Oc1ncnc2[nH]ncc12 [Allopurinol] | 94

Would you kindly look at the next entry?
What the record says about CC(=O)c1c(C)c2cnc(Nc3ccc(N4CCNCC4)cn3)nc2n(C2CCCC2)c1=O : normalised viability is 66.3

====

// reported drug sensitivity score for each item listed
- System: MDA-MB-436
- Measurement Protocol: drug sensitivity score (DSS), CellTox Green (DSS (AUC-based score)); higher = stronger drug effect (viability inhibition or cytotoxicity); extreme values may be limits of the assay
- Reported Conditions: incubation time: 72 h
No unit in the answer, only the number.

Some molecules with recorded drug sensitivity score:
* Cc1ccc([N+](=O)[O-])cc1S(=O)(=O)N(C)/N=C/c1cnc2ccc(Br)cn12 | 0
* Cn1cnc2c(F)c(Nc3ccc(Br)cc3Cl)c(C(=O)NOCCO)cc21 | 0
* CC(=O)N(O)CCCCCNC(=O)CCC(=O)N(O)CCCCCNC(=O)CCC(=O)N(O)CCCCCN | 0
* CC[C@@H]1C(=O)OC[C@@H]1Cc1cncn1C | 0
* Oc1ncnc2[nH]ncc12 | 0

Would you kindly look at the next entry?
What the record says about CC1=C2C[C@H]3[C@@H](CC=C4C[C@@H](O)CC[C@@]43C)[C@@H]2CC[C@]12O[C@@H]1C[C@H](C)CN[C@H]1[C@H]2C : drug sensitivity score is 0

====

// reported normalised viability for each item listed
- Tested on: CAL-148
- Measurement Protocol: normalised viability (% of control), CellTiter-Blue; higher = more viable cells (about 100 = DMSO control)
- Reported Conditions: 100 nM; incubation time: 72 h
Write it as a number; the unit % goes unstated.

Some compounds with recorded normalised viability:
• CC(C)(C)c1cnc(CSc2cnc(NC(=O)C3CCNCC3)s2)o1 = 77.1
• COc1cc(F)c(F)c(Nc2ccc(I)cc2F)c1NS(=O)(=O)C1(C[C@H](O)CO)CC1 = 80
• O=C1CN2Cc3c(ccc(Cl)c3Cl)N=C2N1 [Anagrelide] = 103
• CC1(C)CNc2cc(NC(=O)c3cccnc3NCc3ccncc3)ccc21 = 90.7
• Cn1cc(C2=Nc3cc(NC(=O)C(N)C4CCCCC4)cc4c3C2=CNNC4=O)cn1 (configuration not stated) = 94

What the record says about COc1cc2c(cc1O)CC[C@@H]1[C@@H]2CC[C@]2(C)[C@@H](O)CC[C@@H]12 : normalised viability is 86

What the record says about Nc1ncn([C@@H]2O[C@H](CO)[C@@H](O)[C@H]2O)c(=O)n1 : normalised viability is 89.3
